Could you please report measured inhibition for the items listed next?
assay text: human hepatoma cell viability loss – ATP luminescence, cytotoxicity control for P. falciparum antimalarial project, primary screen (AID 2303);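 note: 0% = DMSO wells and 100% = digitonin-killed cells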
test conditions: HepG2 viability, 24-48 h, at 10 µM, stronger effect = higher value
Activity calls are given as the source filed them.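 Rule for the calls: active = inhibition above 50%; inactive = the rest.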

| smiles data | inhibition |
| --- | --- |
| O=c1ccc(CNc2nc(NCCc3ccccc3)nc3cc(Cl)ccc23)c[nH]1 | 21% (inactive) |
| CCCNC[C@@H](O)[C@H](Cc1ccccc1)NC(=O)c1cc(NCC)cc(N2CCCCS2(=O)=O)c1 | 0% (inactive) |
| Cc1c(O)cccc1Nc1ccnc2ccc(C(F)(F)F)cc12 | -15% (inactive) |

# return inhibition for each item in the list
1. NC(=O)c1cccc(C(=O)Nc2cccc(-c3cccc(-c4nc5ccccc5[nH]4)c3)c2)c1
2. Cc1ccc(/C=C/C(=O)NCCCCCN2CCC(c3c[nH]c4ccccc34)CC2)cc1
3. Cc1ccc(Cc2c(C)nc3nc(N)nc(N)c3c2C)cc1
4. CC(C)C[C@H](NC(=O)c1cc2ccccc2s1)C(=O)N[C@H]1CCN(Cc2ccc(OC[C@@H]3CCCN3C)c(Cl)c2)C1

Out:
1. 32% (inactive)
2. 36% (inactive)
3. 60% (active)
4. 83% (active)

In: Check the records and state inhibition for "Cc1sc(C)c(C(F)(F)F)c1CNCCCNc1cc(=O)c2ccccc2[nH]1"
Out: -3% (inactive)

----------
assay text: antimalarial activity against Dd2 strain (AID 2302);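 note: 0% = DMSO untreated growth and 100% = chloroquine plus artemisinin killed control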
test conditions: P. falciparum Dd2 in RBCs, LDH growth readout, 72 h; at 2 µM; stronger effect = higher value
Could you please report measured growth inhibition for the items listed next?
Give bare numbers, in %.

Example cases with answers are listed next.
| compound | growth inhibition, % |
| --- | --- |
| Nc1ccc2[nH]cc(C3CCN(CC4CCC(NC(=O)/C=C/c5ccccc5Cl)CC4)CC3)c2n1 (centres undefined) | 45 |
| CCN(CC)CCN(Cc1ccc(-c2ccc(C(F)(F)F)cc2)cc1)C(=O)Cn1c(CCc2cc(F)c(F)c(F)c2)nc(=O)c2ccccc21 | 70 |
| COc1ccc(Br)cc1C1Nc2ccc3ccccc3c2C2=C1C(=O)CC(c1ccccc1)C2 (centres undefined) | 96 |
| CN(C)CCN(Cc1ccc(-c2ccc(CNCCc3ccccc3)cc2)nc1)C(=O)CCC1CCCC1 | 89 |
| NCCNc1ccnc2cc(Cl)ccc12 | 54 |

# return growth inhibition for each item in the list
1. Cn1c(Nc2cc(C(C)(C)C)on2)nc2cc(Nc3ccnc(Nc4ccc(CS(C)(=O)=O)cc4)n3)ccc21
2. CCCCC1(NC(=O)[C@@H](Nc2ccc(C#N)c3ccccc23)C2CCCCC2)CCCCC1
3. COc1ccc2nccc([C@@H](O)CN3CCC(NC(=O)Cc4ccc(Br)c5ccccc45)CC3)c2c1

Out:
1. 68
2. 84
3. 40

# return growth inhibition for each item in the list
1. COC(=O)c1cccc(CNCc2ccc(-c3ccc(-c4nc5ccc(F)cc5[nH]4)s3)cc2)c1
2. c1ccc(C(c2ccccc2)N2CCN(C(c3cccnc3)c3nnnn3C3CCCC3)CC2)cc1 (centres undefined)
3. Cc1[nH]c(C)c(-c2ccc(-c3ccccc3F)nc2)c(=O)c1Cl
4. CN1CCN(c2cc(NC(=O)c3ccc(-c4ccc(C#N)cc4)cc3)ccc2Cl)CC1
5. Cc1ccc(CNC(=O)c2ccc(CN3CCCN(Cc4ccsc4)CC3)cc2)cc1
6. CN(C)CCC1CCN(CCS(=O)(=O)c2cccc(Nc3ccc(-c4ccsc4)cn3)c2)CC1

Out:
1: 82; 2: 59; 3: 97; 4: 94; 5: -1; 6: 6

# return growth inhibition for each item in the list
1. CC(C)(C)c1cc(C(=O)N2CCC(c3ccccn3)CC2)n(Cc2ccccc2)n1
2. Cc1ccc2[nH]c(-c3ccc(C(=O)NC4CCN(Cc5ccccc5)CC4)cc3)nc2c1C
3. c1ccc2c(c1)ncc1c3ccccc3[nH]c21
4. Cc1cccc2c(/C=C/C(=O)NC3CCC(CCN4CCc5ccc(C#N)cc5CC4)CC3)c[nH]c12 (centres undefined)

Out:
1. 90
2. 46
3. 36
4. 49

# return growth inhibition for each item in the list
1. Cc1cc(CN2CCCN(c3ccc4c(c3)CCN(Cc3ccc(-c5ncc[nH]5)cc3)CC4)CC2)n(C)n1
2. CCC(=O)c1cc(C(=O)NCCc2cccc(OC)c2)ccc1OC

Out:
[8, 12]

# return growth inhibition for each item in the list
1. COc1ccc(CNC2Cc3ccccc3C2)cc1-c1ccc(S(=O)(=O)NCc2ccccc2)s1
2. Cc1[nH]c(C)c(-c2ccc(OCc3ccc(F)cc3)cc2)c(=O)c1Cl

Out:
1: 25; 2: 96

# return growth inhibition for each item in the list
1. O[C@H]1[C@H](OCc2ccc(-c3ccccc3)cc2)CC[C@@H]1N1CCCCC1
2. CNCCNCc1ccc(-c2cccc(-c3nc4ccc(F)cc4[nH]3)c2)cc1
3. O=C(C=Cc1ccc(Cl)c(Cl)c1)NCCCCCN1CCC(CCNC(=O)c2sc3ccccc3c2Cl)CC1
4. c1cc2c3c(cccc3c1)NC(CCCCCCCCC1=Nc3cccc4cccc(c34)N1)=N2
5. Cc1ccccc1C1CCN(C2CCC(NC(=O)c3ccc(-c4cccs4)s3)CC2)CC1 (centres undefined)

Out:
101
1
6
6
54

# return growth inhibition for each item in the list
1. O=C(Nc1ccc2c(c1)CCN2C1CCN(Cc2ccc(F)cc2Cl)C1)c1ccco1 (centres undefined)
2. Cc1cc(NS(=O)(=O)c2cccc(C(C)N3CCC(N4CCCC4)CC3)c2)ccc1C(C)C (centres undefined)
3. CN(C)CCCNCc1ccc(-c2ccc(F)c(Cl)c2)o1

Out:
1. 96
2. 53
3. 69

# return growth inhibition for each item in the list
1. ON=C1c2cc(OCCN3CCCCC3)c(Cl)cc2-c2cc(Cl)c(OCCN3CCCCC3)cc21
2. CN1CCN(c2nsc3ccc(-c4ccc(NC(=O)Nc5cc(C(F)(F)F)ccc5F)cc4)cc23)CC1
3. Cc1noc(C)c1-c1ccc2c(Nc3ccc(Cl)cc3)c(C(N)=O)cnc2c1
4. COc1ccc(NC(=O)Nc2cc(C)nc3cccnc23)cc1Cn1ccnc1

Out:
[98, 64, 67, 41]

----------
Could you please report measured growth inhibition for the items listed next?
assay text: inhibition of 3D7 malaria parasite growth – strain 3D7 (AID 2306);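 note: 0% = DMSO wells and 100% = chloroquine plus artemisinin control wells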
test conditions: P. falciparum 3D7 erythrocytic growth, LDH absorbance, 72 h; at 2 µM; stronger effect = higher value
Give bare numbers, in %.

Example cases with answers are listed next.
| molecule | unit of measure | numeric result |
| --- | --- | --- |
| CCN(CC)CC(O)c1cc(-c2ccc(C)cc2)nc2c(C)cc(C)cc12 (stereo unspecified) | % | 100 |
| O=C(NCc1cccc2ccccc12)C1CCCN(C(=O)c2ccc(O)c(-c3ccc(Cl)c(Cl)c3)c2)C1 (stereo unspecified) | % | 92 |
| Cc1ccc(-c2noc(COc3ccccc3C(=O)NC3CCCC3)n2)cc1 | % | 89 |
| O=C(Nc1cccc(-c2ccc(CN3CCNCC3)cc2)c1)c1cccc(Cl)c1 | % | 92 |
| OCCN1CCN(Cc2ccc(-c3ccc(-c4nc5ccc(C(F)(F)F)cc5[nH]4)s3)cc2)CC1 | % | 101 |

# return growth inhibition for each item in the list
1. NC(N)=NN=Cc1ccc2ccc3ccccc3c2c1
2. CCCCCCCNC(=O)NCC1CCCN(CCCCCNC(=O)/C=C/c2ccc(Cl)c(Cl)c2)C1 (stereo unspecified)
3. COc1ccc2c(c1)CC(NCc1ccc(-c3ccc4nc[nH]c4c3)cc1)C2 (stereo unspecified)
4. Cc1cc(C(=O)N(Cc2ccc(-c3ccc(CNCCc4ccc(S(C)(=O)=O)cc4)cn3)cc2)C(C)CN(C)C)ccc1[N+](=O)[O-] (stereo unspecified)
5. COc1cc(N(Cc2ccccc2C)S(=O)(=O)Cc2ccccc2[N+](=O)[O-])c(OC)cc1Cl
6. CN1CCN(c2ccnc3ccc(NC(=O)Nc4ccccc4Br)cc23)CC1

Out:
1: 101; 2: 86; 3: 100; 4: 99; 5: 94; 6: 100

----------
assay text: human hepatoma cell viability loss – ATP luminescence, cytotoxicity control for P. falciparum antimalarial project, primary screen (AID 2303);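 note: 0% = DMSO wells and 100% = digitonin-killed cells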
test conditions: HepG2 viability, 24-48 h, at 10 µM, stronger effect = higher value
Could you please report measured inhibition for the items listed next?
One number for each entry, in %.

| molecule | unit of measure | inhibition |
| --- | --- | --- |
| O=C(Nc1ccc(F)cc1)NC1CCN(c2ccnc3cc(Cl)ccc23)CC1 | % | 10 |

# return inhibition for each item in the list
1. CCOc1c(Br)cc(Cl)cc1CNCCCNc1nc2ccccc2[nH]1
2. O=C1C2=C(Nc3ccccc3SC2c2ccccc2)c2ccccc21 (stereo not given)
3. O=C(N[C@@H](Cc1ccccc1)C(=O)NC1CCCCCC1)c1ccc(O)c(-c2cccc(C(F)(F)F)c2)c1
4. CNCCNCc1cccc(-c2ccc(-c3nc4ccccc4[nH]3)s2)c1
5. COc1cccc(-c2[nH]c3ccccc3c2CN2CCC(c3c(C)cccc3C)CC2)c1
6. CC1CC(NCCCNc2cc(=O)c3ccccc3[nH]2)c2cc(Cl)c(Cl)c(Cl)c21 (stereo not given)
7. O=C(/C=C/c1ccc(Cl)c(Cl)c1)N1CCC(CN2CCC(c3c[nH]c4cnccc34)CC2)CC1

Out:
27
5
-10
8
32
0
39

# return inhibition for each item in the list
1. O=C(Nc1cccc(CN2CCCN(Cc3cccc(O)c3)CC2)c1)c1ccc2ccccc2c1
2. O=C(NCCN1CCCC1)c1cccc(-c2ccc(-c3nc4ccccc4[nH]3)s2)c1

Out:
[21, 27]

Ref: PubChem BioAssay
